Attribution: patent US20240400560A1

For each record, write down the corresponding pIC50.
Molecular target: SARS-CoV-2 3CL protease (Severe acute respiratory syndrome coronavirus 2)
Assay: Inhibitory activity test against SARS-CoV-2 3CL proteases
Assay type: biochemical
Conditions: IC50 (50% SARS-CoV-2 3CL protease inhibitory concentration)
pIC50: −log10 of the molar value.

So for COCCNc1cc2c(c(OC)n1)c(=O)n(-c1cnc3cc(F)ccn13)c(=O)n2-c1ccc(F)c(Cl)c1 [Compound I-1049] , the logged pIC50 turned out to be > 7.00

The compound listed as COc1cc(N2[C@@H]3CC[C@H]2CNC3)cc2c1c(=O)n(-c1cnc3ccccn13)c(=O)n2Cc1cc(F)c(F)c(F)c1 [Compound I-0666] has a reported pIC50 of > 7.00

Recorded result, O=c1c2cnc(N3[C@@H]4CC[C@H]3CNC4)cc2n(Cc2cc(F)c(F)c(Cl)c2)c(=O)n1-c1cnc2ccccn12 [Compound I-0547] , pIC50: > 7.00

The compound identified as COc1nc(N2CC[C@@H](F)C2)cc2c1c(=O)n(Cc1ncn(C)n1)c(=O)n2Cc1cc(F)c(F)c(F)c1 [Compound I-0453] registered its pIC50 at 8.60

Data point: O=c1[nH]cccc1Cn1c(=O)c2ccc(N3[C@@H]4CNC[C@H]3COC4)cc2n(Cc2cc(F)c(F)c(F)c2)c1=O [Compound I-0381] ; pIC50 = > 7.00

# pIC50 of COc1nc(N2[C@@H]3CC[C@H]2CNC3)cc2c1c(=O)n(-c1cnc3cc(F)ccn13)c(=O)n2-c1ccc(F)c(Cl)c1 [Compound I-0729] = > 7.00

* * *

Target: UniProtKB P0DTD1
Assay: Inhibitory activity test against SARS-CoV-2 3CL proteases
Format: biochemical
Settings: read-out: IC50 (50% SARS-CoV-2 3CL protease inhibitory concentration)
Give log10(IC50) for every item shown.
All values: log10 IC50 [nM].

For this compound ( CC1Cc2c(-c3cc(C#N)ccc3Cl)cc3c(c2O1)c(=O)n(Cc1ncn(C)n1)c(=O)n3Cc1cc(F)c(F)c(F)c1 (stereo not drawn) [Compound I-0439] ), measured log10(IC50) is 0.67

// recorded log10(IC50) for Cn1cnc(Cn2c(=O)c3c(F)cc(-c4cc(-c5nnc(N)o5)ccc4Cl)cc3n(Cc3cc(F)c(F)c(F)c3)c2=O)n1 [Compound I-0080] : 1.53

compound [2H]C([2H])([2H])O[C@@H]1CCN(c2cc3c(c(OC)n2)c(=O)n(-c2cncc(C)c2)c(=O)n3-c2ccc(F)c(Cl)c2)C1 [Compound I-0937] , log10(IC50) observed: 0.11

Measured log10(IC50) of COc1cc(-c2cc(C(C)=O)ccc2Cl)cc2c1c(=O)n(-c1cncc(C)c1)c(=O)n2Cc1ccc(F)c(C#N)c1 [Compound I-0062] : 0.49

Entry O=c1[nH]cccc1Cn1c(=O)c2ccc(N3C[C@@H]4CC[C@H]3CN4)cc2n(Cc2cc(F)c(F)c(F)c2)c1=O [Compound I-0380] , log10(IC50) reported as 1.15

Looking up COc1nc(N2C[C@@H]3C[C@H]2CO3)cc2c1c(=O)n(-c1cnc3cc(F)ccn13)c(=O)n2-c1ccc(F)c(F)c1 [Compound I-0978] , I found its log10(IC50) recorded as 0.68

Sample COc1cc(-c2cc(C3COC3)ccc2Cl)cc2c1c(=O)n(Cc1ncn(C)n1)c(=O)n2Cc1cc(F)c(F)c(F)c1 [Compound I-0283] ; log10(IC50) observed: 1.51

* * *

Biological target: SARS-CoV-2 3CL protease (Severe acute respiratory syndrome coronavirus 2)
Test: Inhibitory activity test against SARS-CoV-2 3CL proteases
Type: biochemical
Conditions: read-out: IC50 (50% SARS-CoV-2 3CL protease inhibitory concentration)
pIC50: −log10 of the molar value.
Property: pIC50

pIC50 recorded for this compound, COc1cc(-c2cc3c(cc2Cl)NC(=O)C3)cc2c1c(=O)n(-c1cncc(Cl)c1)c(=O)n2Cc1cc(F)c(F)c(F)c1 [Compound I-0065] , is > 7.00

Reported pIC50 for COc1nc(N2C[C@@H]3[C@H](C2)C3(F)F)cc2c1c(=O)n(-c1cnc3cc(F)ccn13)c(=O)n2-c1ccc(F)c(Cl)c1 [Compound I-0759] was > 7.00

The compound listed as COc1nc(N2C[C@@H]3C[C@H]2CO3)cc2c1c(=O)n(-c1cncc(C#N)c1)c(=O)n2-c1ccc(F)c(Cl)c1 [Compound I-0940] has a reported pIC50 of 8.77

pIC50 reading for COc1nc(-c2cc(C#N)ccc2Cl)cc2c1c(=O)n(-c1cnc3ccc(F)cn13)c(=O)n2Cc1cc(F)c(F)c(F)c1 [Compound I-0680] : > 7.00

Notebook: Cn1cnc(Cn2c(=O)c3c(F)cc(-c4cc5cn[nH]c5cc4Cl)cc3n(Cc3cc(F)c(F)c(Cl)c3)c2=O)n1 [Compound I-0269] , pIC50 read as > 7.00

For record Cc1cncc(-n2c(=O)c3c(Cl)cc(-c4cc(C(N)=O)ccc4Cl)cc3n(Cc3ccc(F)c(C#N)c3)c2=O)c1 [Compound I-0010] the listed pIC50 is > 7.00

Value of measured pIC50 for the entry Cn1cnc(Cn2c(=O)c3c4nccnc4c(N4CCC(F)(F)C4)cc3n(Cc3cc(F)c(F)c(Cl)c3)c2=O)n1 [Compound I-0813] : > 7.00

Lab book: pIC50 of [2H]C([2H])([2H])O[C@@H]1CCN(c2cc3c(c(OC)n2)c(=O)n(-c2cncc(F)c2)c(=O)n3-c2ccc(F)c(F)c2)C1 [Compound I-1028] noted as > 7.00

Per the record, COc1nc(N2CC[C@@H](O)C2)cc2c1c(=O)n(-c1cnc3ccc(C#N)cn13)c(=O)n2-c1ccc(F)c(Cl)c1 [Compound I-0992] has pIC50 of > 7.00

Per the record, COc1nc(N2CC[C@@H](O)C2)cc2c1c(=O)n(-c1cnc3cc(F)ccn13)c(=O)n2-c1ccc(F)c(Cl)c1 [Compound I-0745] has pIC50 of > 7.00

Short answer for CCCn1c(-c2cc(C#N)ccc2Cl)cc2c(c1=O)c(=O)n(-c1cncc(Cl)c1)c(=O)n2Cc1cc(F)c(F)c(F)c1 [Compound I-0686] : pIC50 was 8.77

# compound [2H]C([2H])([2H])O[C@@H]1CCN(c2cc3c(c(OC)n2)c(=O)n(-c2cncc(OC(F)F)c2)c(=O)n3-c2ccc(F)c(F)c2)C1 [Compound I-1038] ; its pIC50 = > 7.00

Lab book: pIC50 of COc1nc(N2C[C@H]3C[C@@H]2CN3)cc2c1c(=O)n(-c1cncc(Cl)c1)c(=O)n2Cc1cc(F)c(F)c(F)c1 [Compound I-0459] noted as > 7.00

* * *

Test system: SARS-CoV-2
Assay: Inhibitory activity of cytopathic effect (CPE) in HEK293T/ACE2-TMPRSS2 cells
Format: cell-based
Details: Severe acute respiratory syndrome coronavirus 2, HEK-293T, 72 h, read-out: EC50 (50% SARS-CoV-2 infected cell death inhibitory concentration)
pEC50: −log10 of the molar value.
Can you tell me pEC50 for the items I'm about to list?

Kindly note: SARS-CoV-2, COc1nc(N2[C@@H]3CC[C@H]2CNC3)cc2c1c(=O)n(-c1cnc3ccccn13)c(=O)n2Cc1cc(F)c(F)c(F)c1 , pEC50 value reported: > 7.00

Record COc1nc(N2[C@@H]3CC[C@H]2COC3)cc2c1c(=O)n(-c1cnc3cc(F)ccn13)c(=O)n2-c1ccc(F)c(Cl)c1 / SARS-CoV-2, pEC50 recorded as > 7.00

Sample COc1cc(N2[C@@H]3CC[C@H]2CNC3)cc2c1c(=O)n(-c1cnc3ccccn13)c(=O)n2Cc1cc(F)c(F)c(F)c1 , system: SARS-CoV-2. Its pEC50 is 6.00 to 7.00

Known value: SARS-CoV-2 pEC50 of the molecule COc1nc(N2[C@@H]3CC[C@H]2CNC3)cc2c1c(=O)n(-c1cnc3ccc(Cl)cn13)c(=O)n2Cc1cc(Cl)ccc1Cl equals > 7.00

Test item COc1nc(N2[C@@H]3CC[C@H]2CNC3)cc2c1c(=O)n(-c1cnc3cc(F)ccn13)c(=O)n2Cc1cc(F)c(F)c(F)c1 ; SARS-CoV-2; reported pEC50 was > 7.00

pEC50 on SARS-CoV-2 for O=c1c2c(F)cc(N3[C@@H]4CC[C@H]3CNC4)cc2n(Cc2cc(F)c(F)c(Cl)c2)c(=O)n1-c1cnc2ccccn12 is > 7.00

* * *

Test system: SARS-CoV-2
Test: Inhibitory activity of cytopathic effect (CPE) in HEK293T/ACE2-TMPRSS2 cells
Assay type: cell-based
Conditions: Severe acute respiratory syndrome coronavirus 2, HEK-293T, 72 h; 50% SARS-CoV-2 infected cell death inhibitory concentration; HEK293T/ACE2-TMPRSS2 cells; CellTiter-Glo 2.0 after 3 days culture; read-out: EC50
Property: pEC50
Note on units: pEC50 is unitless, being -log10 of a concentration expressed in mol/L.

Record Cn1cnc(Cn2c(=O)c3c4c(c(-c5cc(C#N)ccc5Cl)cc3n(Cc3cc(F)c(F)c(F)c3)c2=O)[C@@H](O)CO4)n1 [Compound I-0864] . Reported pEC50: 7.34

Entry N#Cc1ccc(Cl)c(-c2cc3c(c4c2C(O)CO4)c(=O)n(-c2cncc(Cl)c2)c(=O)n3Cc2cc(F)c(F)c(F)c2)c1 (stereo not drawn) [Compound I-0859] , pEC50 reported as 7.73

Short answer for Cn1cnc(Cn2c(=O)c3c4nccnc4c(-c4cc5c(cc4Cl)NC(=O)C5)cc3n(Cc3cc(F)c(F)c(Cl)c3)c2=O)n1 [Compound I-0823] : pEC50 was 6.71

Reported pEC50 of Cn1cnc(Cn2c(=O)c3c4nccnc4c(N4CC(F)(F)C(F)(F)C4)cc3n(Cc3cc(F)c(F)c(Cl)c3)c2=O)n1 [Compound I-0570] : 7.61

The value of pEC50 measured for the compound COc1nc(N2CC[C@@H](F)C2)cc2c1c(=O)n(Cc1ncn(C)n1)c(=O)n2-c1cc(Cl)c(F)c(Cl)c1 [Compound I-0803] turned out to be 7.75

Entry COc1nc2c(=O)n(Cc3ncn(C)n3)c(=O)n(Cc3cc(F)c(F)c(Cl)c3)c2cc1-c1cc2c(cc1Cl)NC(=O)C2 [Compound I-0700] — recorded pEC50 = 7.61
